Quick reference for LD50 at 24 h among some compounds
- experiment_description: Acute toxicity in po dosed mouse assessed as mortality after 24 hrs
- Format: organism-based
- measurement_setup: in vivo

Would you please look over these solved cases?
{"compound": "CCCCN(CCCC)CC(=O)Nc1ccc(C2NC(=O)C(C)(C)c3ccccc32)cc1 (stereo unspecified)", "LD50 at 24 h": "> 2000 mg/kg"}
{"compound": "CNCC(=O)Nc1ccc(C2NC(=O)Cc3ccccc32)cc1 (stereo unspecified)", "LD50 at 24 h": "600 mg/kg"}

Using the record for Cc1ccc2c(c1)C(c1ccc(N)cc1)NC(=O)C2(C)C (stereo unspecified) , state its measured LD50 at 24 h.
> 1600 mg/kg

Using the record for CCCCNCC(=O)Nc1ccc(C2NC(=O)C(C)(C)c3ccccc32)cc1 (stereo unspecified) , state its measured LD50 at 24 h.
> 2000 mg/kg

Using the record for Nc1ccc(Cl)c(C2NC(=O)Cc3ccccc32)c1Cl (stereo unspecified) , state its measured LD50 at 24 h.
> 1000 mg/kg

Using the record for CCCNCC(=O)Nc1ccc(C2NC(=O)C(C)(C)c3ccccc32)cc1 (stereo unspecified) , state its measured LD50 at 24 h.
> 1600 mg/kg

---

- experiment_description: Acute toxicity in po dosed mouse assessed as mortality after 24 hrs
- Type: organism-based
- measurement_setup: in vivo
Quick reference for LD50 at 24 h among some compounds

Would you please look over these solved cases?
{"compound": "CCNCC(=O)Nc1ccc(C2NC(=O)Cc3ccccc32)cc1 (stereo not drawn)", "meas_value": "> 1600 mg/kg"}
{"compound": "O=C1Cc2ccccc2C(c2ccc(NC(=O)NCc3ccccc3)cc2)N1 (stereo not drawn)", "meas_value": "> 2000 mg/kg"}
{"compound": "CC1(C)C(=O)NC(c2ccc(N)cc2)c2ccccc21 (stereo not drawn)", "meas_value": "> 1600 mg/kg"}
{"compound": "CC1(C)C(=O)NC(c2ccccc2N)c2ccccc21 (stereo not drawn)", "meas_value": "> 1000 mg/kg"}
{"compound": "CCCNCC(=O)Nc1ccc(C2NC(=O)Cc3ccccc32)cc1 (stereo not drawn)", "meas_value": "2000 mg/kg"}
{"compound": "CCNCC(=O)Nc1ccc(C2NC(=O)C(C)(C)c3ccccc32)cc1 (stereo not drawn)", "meas_value": "> 2000 mg/kg"}

Using the record for CC1(C)C(=O)NC(c2ccc(NC(=O)CN3CCOCC3)cc2)c2ccccc21 (stereo not drawn) , state its measured LD50 at 24 h.
2000 mg/kg

Using the record for CC(C)NCC(=O)Nc1ccc(C2NC(=O)Cc3ccccc32)cc1 (stereo not drawn) , state its measured LD50 at 24 h.
> 1000 mg/kg

---

- experiment_description: Protective index, ratio of ED50 for neurotoxicity in po dosed mouse by rotarod test to ED50 for anticonvulsant activity in po dosed mouse assessed as protection against maximal electroshock-induced seizures
- Assay type: toxicity, organism-based
- measurement_setup: in vivo, read-out: Ratio ED50
# binarize selectivity ratio: threshold 10 inclusive, high side Criterion met, low side Criterion not met

{"molecule": "O=C1Cc2ccccc2C(c2ccccc2)N1 (configuration not stated)", "group": "Criterion not met"}

Entry Cl.Nc1ccc(C2NC(=O)Cc3ccccc32)cc1 (configuration not stated) : is its selectivity ratio no less than 10?
Criterion not met

Entry CCCNCC(=O)Nc1ccccc1C1NC(=O)Cc2ccccc21 (configuration not stated) : is its selectivity ratio no less than 10?
Criterion met

Entry CC1(C)C(=O)NC(c2ccc(N)cc2)c2ccccc21 (configuration not stated) : is its selectivity ratio no less than 10?
Criterion met

Entry Cc1ccc2c(c1)C(c1ccc(N)cc1)NC(=O)C2(C)C (configuration not stated) : is its selectivity ratio no less than 10?
Criterion met

Entry CCNCC(=O)Nc1ccc(C2NC(=O)Cc3ccccc32)cc1 (configuration not stated) : is its selectivity ratio no less than 10?
Criterion met

Entry CC(C)C1C(=O)NC(c2ccc(N)cc2)c2ccccc21 (configuration not stated) : is its selectivity ratio no less than 10?
Criterion met

---

Quick reference for ED50 among some molecules
- Test system: Mus musculus
- experiment_description: Neurotoxicity in po dosed mouse by rotarod test
- Type: toxicity, organism-based
- measurement_setup: in vivo

{"molecule": "O=C(CN1CCCCC1)Nc1ccc(C2NC(=O)Cc3ccccc32)cc1 (stereo not drawn)", "ED50": "> 2000 mg/kg"}
{"molecule": "Nc1ccc(Cl)c(C2NC(=O)Cc3ccccc32)c1Cl (stereo not drawn)", "ED50": "> 1000 mg/kg"}
{"molecule": "O=C(CCCN1CCCC1)Nc1ccc(C2NC(=O)Cc3ccccc32)cc1 (stereo not drawn)", "ED50": "> 2000 mg/kg"}
{"molecule": "CC1(C)C(=O)NC(c2ccc(NC(=O)CN3CCOCC3)cc2)c2ccccc21 (stereo not drawn)", "ED50": "> 1600 mg/kg"}
{"molecule": "CC1(C)C(=O)NC(c2ccccc2N)c2ccccc21 (stereo not drawn)", "ED50": "> 1000 mg/kg"}
{"molecule": "O=C1Cc2ccccc2C(c2ccc(NC(=O)NCc3ccccc3)cc2)N1 (stereo not drawn)", "ED50": "> 2000 mg/kg"}
{"molecule": "CC1(C)C(=O)NC(c2ccc(NC(=O)CN3CCCCC3)cc2)c2ccccc21 (stereo not drawn)", "ED50": "> 2000 mg/kg"}
{"molecule": "O=C(CN1CCOCC1)Nc1ccc(C2NC(=O)Cc3ccccc32)cc1 (stereo not drawn)", "ED50": "> 1600 mg/kg"}

Using the record for Nc1ccccc1C1NC(=O)Cc2ccccc21 (stereo not drawn) , state its measured ED50.
940 mg/kg

Using the record for CCCNCC(=O)Nc1ccccc1C1NC(=O)Cc2ccccc21 (stereo not drawn) , state its measured ED50.
> 2000 mg/kg

---

Quick reference for selectivity ratio among some compounds
- experiment_description: Protective index, ratio of ED50 for neurotoxicity in po dosed mouse by rotarod test to ED50 for anticonvulsant activity in po dosed mouse assessed as protection against maximal electroshock-induced seizures
- Format: toxicity, organism-based
- measurement_setup: in vivo, read-out: Ratio ED50
Kindly provide the number alone.

{"compound": "CC(C)NCC(=O)Nc1ccc(C2NC(=O)Cc3ccccc32)cc1 (stereo not drawn)", "selectivity ratio": 26}
{"compound": "CCN(CC)CC(=O)Nc1ccc(C2NC(=O)C(C)(C)c3ccccc32)cc1 (stereo not drawn)", "selectivity ratio": 15}
{"compound": "Nc1ccccc1C1NC(=O)Cc2ccccc21 (stereo not drawn)", "selectivity ratio": 7}
{"compound": "CCCCN(CCCC)CC(=O)Nc1ccc(C2NC(=O)C(C)(C)c3ccccc32)cc1 (stereo not drawn)", "selectivity ratio": 10}

Using the record for CC(C)NCC(=O)Nc1ccc(C2NC(=O)C(C)(C)c3ccccc32)cc1 (stereo not drawn) , state its measured selectivity ratio.
59

Using the record for CC1(C)C(=O)NC(c2ccc(NC(=O)CN)cc2)c2ccccc21 (stereo not drawn) , state its measured selectivity ratio.
13

---

Quick reference for LD50 at 24 h among some molecules
- experiment_description: Acute toxicity in po dosed mouse assessed as mortality after 24 hrs
- Assay type: organism-based
- measurement_setup: in vivo

{"molecule": "Nc1ccccc1C1NC(=O)Cc2ccccc21 (stereo not given)", "LD50 at 24 h": "> 2000 mg/kg"}
{"molecule": "CC(C)C1C(=O)NC(c2ccc(N)cc2)c2ccccc21 (stereo not given)", "LD50 at 24 h": "> 1600 mg/kg"}
{"molecule": "CC(C)C1C(=O)NC(c2ccc(NC(=O)CCCN3CCCC3)cc2)c2ccccc21 (stereo not given)", "LD50 at 24 h": "> 1000 mg/kg"}
{"molecule": "Cl.Nc1ccc(C2NC(=O)Cc3ccccc32)cc1 (stereo not given)", "LD50 at 24 h": "795 mg/kg"}
{"molecule": "CNCC(=O)Nc1ccc(C2NC(=O)C(C)(C)c3ccccc32)cc1 (stereo not given)", "LD50 at 24 h": "> 2000 mg/kg"}
{"molecule": "CCCNCC(=O)Nc1ccccc1C1NC(=O)Cc2ccccc21 (stereo not given)", "LD50 at 24 h": "> 2000 mg/kg"}

Using the record for CC1(C)C(=O)NC(c2ccc(NC(=O)CN)cc2)c2ccccc21 (stereo not given) , state its measured LD50 at 24 h.
> 1000 mg/kg

Using the record for CCN(CC)CC(=O)Nc1ccc(C2NC(=O)C(C)(C)c3ccccc32)cc1 (stereo not given) , state its measured LD50 at 24 h.
1600 mg/kg

Using the record for O=C(CN1CCOCC1)Nc1ccc(C2NC(=O)Cc3ccccc32)cc1 (stereo not given) , state its measured LD50 at 24 h.
> 1600 mg/kg

Using the record for CC1(C)C(=O)NC(c2ccc(NC(=O)CN3CCCCC3)cc2)c2ccccc21 (stereo not given) , state its measured LD50 at 24 h.
> 2000 mg/kg

Using the record for CCCNCC(=O)Nc1ccc(C2NC(=O)C(C(C)C)c3ccccc32)cc1 (stereo not given) , state its measured LD50 at 24 h.
600 mg/kg

Using the record for CC(C)NCC(=O)Nc1ccc(C2NC(=O)C(C)(C)c3ccccc32)cc1 (stereo not given) , state its measured LD50 at 24 h.
> 2000 mg/kg

Using the record for O=C1NC(=O)C(c2ccccc2)(c2ccccc2)N1 , state its measured LD50 at 24 h.
> 1000 mg/kg

Using the record for O=C(CCCN1CCCC1)Nc1ccc(C2NC(=O)Cc3ccccc32)cc1 (stereo not given) , state its measured LD50 at 24 h.
> 2000 mg/kg

Using the record for O=C1Cc2ccccc2C(c2ccccc2)N1 (stereo not given) , state its measured LD50 at 24 h.
1060 mg/kg
